Measured values drawn from patent US20230272056A1 for this set.

biological target: T1, human LAP-TGFβ1 (construct not stated) (human, UniProt P01137 30-390); test: KinExA, mAb as constant binding partner
T1 construct: also called human LAP-TGFβ isoform 1; titrant
T1 sequence (P01137 30-390 limits assumed): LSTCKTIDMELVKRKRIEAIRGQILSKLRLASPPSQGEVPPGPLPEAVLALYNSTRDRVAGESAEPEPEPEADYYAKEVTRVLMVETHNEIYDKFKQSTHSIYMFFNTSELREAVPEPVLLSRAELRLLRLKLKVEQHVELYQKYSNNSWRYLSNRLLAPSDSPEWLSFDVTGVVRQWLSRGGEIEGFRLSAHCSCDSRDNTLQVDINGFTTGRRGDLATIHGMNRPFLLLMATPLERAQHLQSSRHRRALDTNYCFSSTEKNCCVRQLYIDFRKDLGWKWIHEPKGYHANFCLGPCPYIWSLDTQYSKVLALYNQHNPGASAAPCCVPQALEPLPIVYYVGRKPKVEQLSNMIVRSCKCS
observation.type: kon

>  <binder>
15BLM (antibody, human IgG1, kappa, L234A L235A, V domains shown, IgG1 L234A L235A D265S/kappa; also called 78BLH; 51BMD) VH: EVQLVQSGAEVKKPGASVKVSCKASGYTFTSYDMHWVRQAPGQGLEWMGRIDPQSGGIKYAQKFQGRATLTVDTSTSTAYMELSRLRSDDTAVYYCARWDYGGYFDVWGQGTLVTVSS VL: DIQMTQSPSSLSASVGDRVTITCRASQDIYNYLNWYQQKPGKAVKLLIYYTSRLETGVPSRFSGSGSGTDYTLTISSLQPEDFATYFCQQGDTLPWTFGQGTKLEIKR

>  <result>
1.09e+07 M⁻¹ s⁻¹

$$$$

Query binder follows.
Record summary for 07BLM (antibody, human IgG1, kappa, L234A L235A, V domains shown, IgG1 L234A L235A D265S/kappa; also called 70BLH; 43BMD) VH: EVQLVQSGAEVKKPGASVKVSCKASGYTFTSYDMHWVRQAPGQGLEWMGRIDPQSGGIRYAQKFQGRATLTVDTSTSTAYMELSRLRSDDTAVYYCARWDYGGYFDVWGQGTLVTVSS VL: DIQMTQSPSSLSASVGDRVTITCRASQDIYSYLNWYQQKPGKAVKLLIYYTSNLETGVPSRFSGSGSGTDYTLTISSLQPEDFATYFCQQGDTLPWTFGQGTKLEIKR : reported kon = 1.28e+07 M⁻¹ s⁻¹
